# system: T1, CRBN, Q96SW2;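 further: pooled lentiviral library of zinc finger degron-EGFP fusions in mCherry-positive Jurkat cells, FACS-sorted after compound exposure, with degron abundance counted by next-generation sequencing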
# T1 chain: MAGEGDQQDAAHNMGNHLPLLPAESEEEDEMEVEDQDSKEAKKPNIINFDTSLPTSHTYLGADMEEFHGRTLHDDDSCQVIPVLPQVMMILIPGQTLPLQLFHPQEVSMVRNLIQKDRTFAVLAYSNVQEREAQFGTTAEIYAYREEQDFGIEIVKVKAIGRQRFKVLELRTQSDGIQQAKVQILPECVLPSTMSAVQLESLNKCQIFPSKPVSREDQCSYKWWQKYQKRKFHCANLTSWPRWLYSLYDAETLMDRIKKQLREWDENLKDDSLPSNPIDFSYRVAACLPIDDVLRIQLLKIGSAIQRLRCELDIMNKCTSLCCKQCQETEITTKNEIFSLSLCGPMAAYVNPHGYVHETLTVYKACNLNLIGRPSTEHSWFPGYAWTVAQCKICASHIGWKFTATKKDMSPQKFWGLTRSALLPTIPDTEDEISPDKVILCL
# testSummary: log2 fold change of degron read counts, EGFP-low vs EGFP+ sorted cells (limma voom), compound-induced degradation; higher = more compound-induced degradation of the degron-EGFP fusion; degrons are variants of IKZF1/3 zinc finger 2; compound dose not given here
# conditionDescription: Jurkat; 18 h; compound: compound 22 (5-morpholino-thalidomide)
The full ranking holds about 8,300 sequences; the median of “log2 fold change of degron read counts, EGFP-low vs EGFP+ sorted cells (limma voom), compound-induced degradation” is about -1.1, and the highest 2% start at about 3.2. The full list was thinned out, with the highest values kept by preference.
# if value of log2 fold change of degron read counts reaches -2, tag 1; if it stays below, tag 0

Inquiry: For this sequence, is measured log2 fold change of degron read counts -2 or higher? FVCPICGAEFTQKGNLLRHIKL [46F_47V_49P_50I_52G_53A_54E_55F_67L_, Q9UKT9]
Reply text: 1
